Give measured PBM binding z-score for each item. Keep answers brief.
tested on: PPARg:RXRa (NR concentration 180 nM, RXRa partner concentration 90 nM); test: PBM binding z-score (relative to random genomic background probes); higher = stronger binding; sequences stand for … in GC…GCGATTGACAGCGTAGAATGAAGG
Write the value as a bare number.

Task: Query (sequence): `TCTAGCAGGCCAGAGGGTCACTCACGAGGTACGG` ; field requested: PBM binding z-score
Output: 1.46

Task: Query (sequence): `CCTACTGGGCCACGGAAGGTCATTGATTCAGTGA` ; field requested: PBM binding z-score
Output: 3.4

Task: Query (sequence): `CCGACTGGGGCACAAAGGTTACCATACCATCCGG` ; field requested: PBM binding z-score
Output: 4.16

Task: Query (sequence): `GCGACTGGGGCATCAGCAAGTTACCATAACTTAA` ; field requested: PBM binding z-score
Output: 0.866

Task: Query (sequence): `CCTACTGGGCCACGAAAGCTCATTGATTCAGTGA` ; field requested: PBM binding z-score
Output: 1.08

Task: Query (sequence): `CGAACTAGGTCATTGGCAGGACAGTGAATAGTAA` ; field requested: PBM binding z-score
Output: 7.68

Task: Query (sequence): `GTACTAAGGTGAATAGGTCGTTGATGAGTAGGCG` ; field requested: PBM binding z-score
Output: 1.77

Task: Query (sequence): `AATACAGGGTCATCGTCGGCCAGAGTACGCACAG` ; field requested: PBM binding z-score
Output: 6.81

Task: Query (sequence): `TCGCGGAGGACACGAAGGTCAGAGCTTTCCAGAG` ; field requested: PBM binding z-score
Output: 0.306

Task: Query (sequence): `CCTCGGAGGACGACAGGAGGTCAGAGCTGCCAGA` ; field requested: PBM binding z-score
Output: 0.288

Task: Query (sequence): `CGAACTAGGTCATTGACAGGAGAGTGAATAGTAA` ; field requested: PBM binding z-score
Output: 7.41

Task: Query (sequence): `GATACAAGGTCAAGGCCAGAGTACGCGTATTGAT` ; field requested: PBM binding z-score
Output: 5.86

Task: Query (sequence): `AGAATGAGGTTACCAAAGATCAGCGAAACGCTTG` ; field requested: PBM binding z-score
Output: 2.63

Task: Query (sequence): `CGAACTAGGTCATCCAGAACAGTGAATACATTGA` ; field requested: PBM binding z-score
Output: 7.99

Task: Query (sequence): `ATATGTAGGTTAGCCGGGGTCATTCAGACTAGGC` ; field requested: PBM binding z-score
Output: 6.59

Task: Query (sequence): `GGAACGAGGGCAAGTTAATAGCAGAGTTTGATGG` ; field requested: PBM binding z-score
Output: 1.14

Task: Query (sequence): `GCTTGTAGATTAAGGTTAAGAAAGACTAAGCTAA` ; field requested: PBM binding z-score
Output: 0.216

Task: Query (sequence): `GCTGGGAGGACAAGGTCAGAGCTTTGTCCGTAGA` ; field requested: PBM binding z-score
Output: 0.399

Task: Query (sequence): `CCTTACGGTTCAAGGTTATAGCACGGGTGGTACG` ; field requested: PBM binding z-score
Output: 0.899

Task: Query (sequence): `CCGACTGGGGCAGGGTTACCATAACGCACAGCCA` ; field requested: PBM binding z-score
Output: 1.77

Task: Query (sequence): `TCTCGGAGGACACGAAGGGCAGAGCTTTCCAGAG` ; field requested: PBM binding z-score
Output: -0.047

Task: Query (sequence): `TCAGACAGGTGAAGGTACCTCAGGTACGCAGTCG` ; field requested: PBM binding z-score
Output: 0.642

Task: Query (sequence): `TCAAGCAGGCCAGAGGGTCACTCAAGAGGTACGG` ; field requested: PBM binding z-score
Output: 1.67

Task: Query (sequence): `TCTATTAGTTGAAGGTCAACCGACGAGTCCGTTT` ; field requested: PBM binding z-score
Output: 1.56

Task: Query (sequence): `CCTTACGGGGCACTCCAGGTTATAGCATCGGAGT` ; field requested: PBM binding z-score
Output: 0.305

Task: Query (sequence): `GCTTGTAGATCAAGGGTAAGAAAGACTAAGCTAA` ; field requested: PBM binding z-score
Output: 2.55
